# Test system: Pseudomonas aeruginosa PA14 wild type
# PROTOCOL DETAILS: respiration area under curve with compound as sole nitrogen source, 24 h (OmniLog AUC (arbitrary units)); higher = more respiration / better utilisation as nitrogen source, active = 2000 or more
Would you mind labelling by respiration area under curve? At or over 4000 is fulfilled, under is not fulfilled.

[ask] hey, is respiration area under curve for this one >= 4000? N[C@@H](CCC(=O)O)C(=O)N[C@@H](CCC(=O)O)C(=O)O (plate: PM6)
[reply] not fulfilled

[ask] hey, is respiration area under curve for this one >= 4000? NC(=O)C[C@H](N)C(=O)N[C@@H](CCC(=O)O)C(=O)O (plate: PM6)
[reply] fulfilled

[ask] hey, is respiration area under curve for this one >= 4000? N[C@@H](Cc1ccc(O)cc1)C(=O)N[C@@H](Cc1ccccc1)C(=O)O (plate: PM7)
[reply] fulfilled

[ask] hey, is respiration area under curve for this one >= 4000? CC[C@H](C)[C@H](NC(=O)[C@@H](N)Cc1ccccc1)C(=O)O (plate: PM7)
[reply] fulfilled

[ask] hey, is respiration area under curve for this one >= 4000? C[C@H](N)C(=O)N[C@@H](Cc1ccccc1)C(=O)O (plate: PM6)
[reply] fulfilled

[ask] hey, is respiration area under curve for this one >= 4000? NCC(=O)N[C@@H](Cc1ccccc1)C(=O)N[C@@H](Cc1ccccc1)C(=O)O (plate: PM8)
[reply] fulfilled

[ask] hey, is respiration area under curve for this one >= 4000? CC[C@H](C)[C@H](NC(=O)[C@@H](N)C(C)C)C(=O)O (plate: PM7)
[reply] fulfilled

[ask] hey, is respiration area under curve for this one >= 4000? CC[C@H](C)[C@H](N)C(=O)N[C@@H](Cc1c[nH]c2ccccc12)C(=O)O (plate: PM6)
[reply] not fulfilled

[ask] hey, is respiration area under curve for this one >= 4000? N[C@@H](Cc1ccccc1)C(=O)N[C@@H](Cc1ccc(O)cc1)C(=O)O (plate: PM8)
[reply] not fulfilled

[ask] hey, is respiration area under curve for this one >= 4000? CSCC[C@H](NC(=O)[C@@H](N)CO)C(=O)O (plate: PM7)
[reply] fulfilled

[ask] hey, is respiration area under curve for this one >= 4000? O=C(O)[C@H](Cc1ccc(O)cc1)NC(=O)[C@@H]1CCCN1 (plate: PM7)
[reply] fulfilled

[ask] hey, is respiration area under curve for this one >= 4000? N[C@@H](Cc1c[nH]c2ccccc12)C(=O)N[C@@H](CO)C(=O)O (plate: PM7)
[reply] fulfilled

[ask] hey, is respiration area under curve for this one >= 4000? CC[C@H](C)[C@H](N)C(=O)NCC(=O)O (plate: PM6)
[reply] fulfilled

[ask] hey, is respiration area under curve for this one >= 4000? CC[C@H](C)[C@H](N)C(=O)N[C@@H](Cc1ccccc1)C(=O)O (plate: PM6)
[reply] not fulfilled

----------
# System: Pseudomonas aeruginosa PA14 wild type
# PROTOCOL DETAILS: respiration area under curve with compound as sole nitrogen source, 24 h (OmniLog AUC (arbitrary units)); higher = more respiration / better utilisation as nitrogen source, active = 2000 or more
Would you mind answering with one of these outcomes? active, inactive

Known results for compounds:
> print(dat)
                                   compound     class
1  N[C@@H](Cc1ccccc1)C(=O)N[C@@H](CC(=O)O)C(=O)O (plate: PM8)    active
2  CC(C)C[C@H](NC(=O)CN)C(=O)O (plate: PM6)  inactive

[ask] For CC[C@H](C)[C@H](N)C(=O)N[C@@H](CC(C)C)C(=O)O (plate: PM8) , which call appears in the assay record?
[reply] active

[ask] For CC[C@H](C)[C@H](N)C(=O)N[C@@H](Cc1ccc(O)cc1)C(=O)O (plate: PM6) , which call appears in the assay record?
[reply] active

[ask] For CC(C)C[C@@H](N)C(=O)N[C@@H](Cc1ccc(O)cc1)C(=O)O (plate: PM8) , which call appears in the assay record?
[reply] inactive

[ask] For CC(C)[C@H](N)C(=O)N[C@@H](CCC(N)=O)C(=O)O (plate: PM8) , which call appears in the assay record?
[reply] active
